Where do the numbers come from? From patent US6395275.

molecular target: T1, recombinant gp120 of HIV-1 strain IIIb (HIV-1 strain IIIb, UniProt P04578 33-511); assay: SPR BIAcore, gp120 on chip
T1 construct: domain: gp120; also called IIIb-derived gp120; gp 120 (IIIB strain)
Answer each item with its documented Kd.
Answers are plain numbers, in nM.

As a guide, the following entries are already answered.
BINDER: Fab QA8 (Fab, V domains shown) VH: LEQSGAEVKKPGASVKVSCQASGYRFSNFTVHWVRQAPGQRFEWMGWINPYNGNKEFSAKFQDRVTFTADTSANTAYMELRSLRSADTAVYYCARVGEWGWDDSPQDNYYMDVWGKGTTVIVSS VL: ELTQSPGTLSLSPGERATFSCRSSHQLDGSRVAWYQHKPGQAPRLVIHGVSNRASGISDRFSGSGSGTDFTLTITRVEPEDFALYYCQQYGDSLYTFGQGTKLERKR
OBSERVED_RESULT: 0.44
//
BINDER: Fab QA11 (Fab, V domains shown, also called LH (its light chain)) VH: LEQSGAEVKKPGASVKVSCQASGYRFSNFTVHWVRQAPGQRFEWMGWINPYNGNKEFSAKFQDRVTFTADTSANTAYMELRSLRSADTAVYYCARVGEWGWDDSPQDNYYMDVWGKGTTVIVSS VL: ELTQSPGTLSLSPGERATFSCRSSHQLDGSRVAWYQHKPGQAPRLVIHGVSNRASGISDRFSGSGSGTDFTLTITRVEPEDFALYYCQTYGRGHYTFGQGTKLERKR
OBSERVED_RESULT: 0.067
//
BINDER: Fab QA5 (Fab, V domains shown) VH: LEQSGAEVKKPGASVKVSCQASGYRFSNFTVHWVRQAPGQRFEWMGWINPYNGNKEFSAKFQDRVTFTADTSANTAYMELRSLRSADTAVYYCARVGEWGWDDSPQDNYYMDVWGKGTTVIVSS VL: ELTQSPGTLSLSPGERATFSCRSSHQLDGSRVAWYQHKPGQAPRLVIHGVSNRASGISDRFSGSGSGTDFTLTITRVEPEDFALYYCQTYGWSGYTFGQGTKLERKR
OBSERVED_RESULT: 0.46

# input for lookup
The recorded Kd for entry Fab QA12 (Fab, V domains shown) VH: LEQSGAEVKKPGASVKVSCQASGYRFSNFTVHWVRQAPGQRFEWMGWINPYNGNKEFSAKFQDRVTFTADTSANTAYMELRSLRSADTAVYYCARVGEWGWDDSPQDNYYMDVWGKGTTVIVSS VL: ELTQSPGTLSLSPGERATFSCRSSHQLDGSRVAWYQHKPGQAPRLVIHGVSNRASGISDRFSGSGSGTDFTLTITRVEPEDFALYYCQTYGRGIYTFGQGTKLERKR equals 0.13
